- Test system: LIMK2
- condition-set: concentration: 1 μM, replicates: in singlicate; n = 1;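 also: KINOMEscan kinase panel screen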
# %Inh annotations

{"compound": "Cl.O=C(Nc1ccc(Oc2ccc3[nH]c(NC(=O)c4ccco4)nc3c2)cc1)Nc1cc(C(F)(F)F)ccc1F [GW683134]", "unit-annotation": "%", "%Inh": 0}
{"compound": "COc1cccc(NC(=O)NCCNc2ccnc(Nc3ccc(F)cc3)n2)c1 [GSK1379879]", "unit-annotation": "%", "%Inh": 18}
{"compound": "CNc1nccc(-c2ccc3c(N)n[nH]c3c2)n1 [GSK2206003]", "unit-annotation": "%", "%Inh": 0}
{"compound": "CSc1ccc(NC2=C(c3ccc(Cl)cc3)C(=O)NC2=O)cc1 [SB-317658]", "unit-annotation": "%", "%Inh": 1}
{"compound": "Nc1ncc(-c2cn[nH]c2)c2scc(-c3ccc4c(c3)CCN4C(=O)Cc3ccccc3)c12 [GSK2593067]", "unit-annotation": "%", "%Inh": 49}
{"compound": "Fc1cc(Cl)ccc1Nc1ccnc2cc(-c3ccc(CN4CCSCC4)o3)ccc12 [GW560106]", "unit-annotation": "%", "%Inh": 0}
{"compound": "CN(C)CCNS(=O)(=O)c1ccc(-c2ccnc3[nH]ccc23)cc1 [GSK977620]", "unit-annotation": "%", "%Inh": 0}
{"compound": "CS(=O)(=O)c1cccc(CNc2nc(Nc3ccc4c(c3)CCC(=O)N4)ncc2C(F)(F)F)c1", "unit-annotation": "%", "%Inh": 0}
{"compound": "O=C(Nc1n[nH]c2cc(-c3cccs3)ccc12)C1CC1 [SB-731284]", "unit-annotation": "%", "%Inh": 0}
{"compound": "Nc1ncnc2scc(-c3ccc(NC(=O)Cc4cc(F)ccc4F)cc3)c12.O=C(O)C(F)(F)F [SB-731254-M]", "unit-annotation": "%", "%Inh": 96}
{"compound": "Cc1cccc(Nc2nc(N[C@H]3CCCC[C@H]3N)ncc2C(N)=O)c1.Cl [GSK986310]", "unit-annotation": "%", "%Inh": 18}
{"compound": "CN(c1ccc(F)c(NC(=O)c2cccc(OC(C)(C)C#N)c2Cl)c1)c1ccc2nc(NC(=O)C3CC3)sc2n1", "unit-annotation": "%", "%Inh": 0}
{"compound": "CN(c1ccc(NC(=O)N2CCN(CCCN3CCOCC3)CC2)cc1)c1ccnc(Nc2ccc(CS(C)(=O)=O)cc2)n1.Cl [GW830899]", "unit-annotation": "%", "%Inh": 6}
{"compound": "COC(=O)Nc1nc2ccc(Oc3ccc(CC(=O)Nc4cc(C(F)(F)F)ccc4F)cc3)cc2[nH]1 [GW680903]", "unit-annotation": "%", "%Inh": 7}
{"compound": "Cl.N#CCc1ccc(Nc2nccc(Nc3ccc(Oc4ccccc4)cc3)n2)cc1 [GW639905]", "unit-annotation": "%", "%Inh": 11}
{"compound": "O=C(Nc1n[nH]c2nc(-c3cccc(O)c3)ccc12)C1CC1 [SB-711805]", "unit-annotation": "%", "%Inh": 0}
{"compound": "COc1cccc2c(-c3ccncc3)c(-c3ccc(F)cc3)nn12 [GW468513]", "unit-annotation": "%", "%Inh": 0}

====

- Test system: TSSK3
- condition-set: concentration: 1 μM, replicates: in singlicate; n = 1

{"molecule": "CCOc1nccc(-c2c(-c3ccc(F)cc3)ncn2C2CCNCC2)n1 [SB-249175]", "unit-annotation": "%", "%Inh": 34}
{"molecule": "COC(=O)Nc1nc2ccc(Oc3ccc(NC(=O)Nc4cc(C(F)(F)F)ccc4F)cc3)cc2[nH]1.Cl [GW654607]", "unit-annotation": "%", "%Inh": 6}
{"molecule": "Cc1cccc(Nc2nc(N[C@H]3CCCC[C@H]3N)ncc2C(N)=O)c1.Cl [GSK986310]", "unit-annotation": "%", "%Inh": 33}
{"molecule": "Cc1ccc(NC(=O)c2ccnc(N3CCCCC3)c2)cc1-c1ccc(C(=O)NCC2CC2)cc1 [GW775610]", "unit-annotation": "%", "%Inh": 23}
{"molecule": "Cc1ccc(O)cc1Nc1ccnc2cc(-c3ccc(CN4CCCCC4)o3)ccc12 [GW557777]", "unit-annotation": "%", "%Inh": 0}
{"molecule": "Cl.N#CCc1ccc(Nc2nccc(Nc3ccc(Oc4ccccc4)cc3)n2)cc1 [GW639905]", "unit-annotation": "%", "%Inh": 10}
{"molecule": "O=C(Nc1n[nH]c2nc(-c3cccc(O)c3)ccc12)C1CC1 [SB-711805]", "unit-annotation": "%", "%Inh": 0}
{"molecule": "Fc1cc(Cl)ccc1Nc1ccnc2cc(-c3ccc(CN4CCSCC4)o3)ccc12 [GW560106]", "unit-annotation": "%", "%Inh": 14}
{"molecule": "Cc1ccc(O)cc1Nc1ccnc2ccc(C(C)(C)C)cc12 [GW856805]", "unit-annotation": "%", "%Inh": 0}

====

- System: ADCK3
- Construct: gene CABC1
- condition-set: concentration: 1 μM, replicates: in singlicate; n = 1
Would you mind labelling by %Inh? At or over 8% is T, under is F.

{"smiles-string": "O=C(Nc1n[nH]c2nc(-c3cccc(O)c3)ccc12)C1CC1", "study-target": "ADCK3", "answer-label": "F"}
{"smiles-string": "N#Cc1cnc2cc(-c3cnc(CNCCN4CCOCC4)s3)ccc2c1Nc1ccc(Oc2ccccc2)cc1", "study-target": "ADCK3", "answer-label": "F"}
{"smiles-string": "Cn1cc(-c2cnc(N)c3c(-c4ccc5c(c4)CCN5C(=O)Cc4ccccc4)csc23)cn1", "study-target": "ADCK3", "answer-label": "F"}
{"smiles-string": "COc1ccc(C2=C(Nc3cccc(O)c3)C(=O)NC2=O)cc1", "study-target": "ADCK3", "answer-label": "F"}
{"smiles-string": "CN(C)CCOc1ccc(-c2cc(-c3ccc(Cl)c(O)c3)c(-c3ccncc3)[nH]2)cc1.Cl.Cl", "study-target": "ADCK3", "answer-label": "T"}
{"smiles-string": "Cc1ccc(NC(=O)c2ccc(Cl)c(Cl)c2)cc1-c1ccc(C(=O)Nc2ccncc2)cc1", "study-target": "ADCK3", "answer-label": "T"}
{"smiles-string": "O=C(O)C(F)(F)F.O=c1[nH]ccc2nc(N[C@@H]3CCNC3)nc(Nc3cc(Cl)cc(Cl)c3)c12", "study-target": "ADCK3", "answer-label": "T"}
{"smiles-string": "CC(C)c1nc(-c2cccc(NS(=O)(=O)c3c(F)cccc3F)c2)c(-c2ccnc(Nc3ccc(N4CCOCC4)nc3)n2)s1.Cl", "study-target": "ADCK3", "answer-label": "T"}
{"smiles-string": "Cc1ccc(O)cc1Nc1ccnc2ccc(C(C)(C)C)cc12", "study-target": "ADCK3", "answer-label": "F"}
{"smiles-string": "COC(=O)Nc1nc2ccc(Oc3ccc(NC(=O)Nc4cc(C(F)(F)F)ccc4F)cc3)cc2[nH]1.Cl", "study-target": "ADCK3", "answer-label": "F"}
{"smiles-string": "CN(c1ccc(NC(=O)Nc2cccc(Cl)c2)cc1)c1ccnc(N)n1.Cl", "study-target": "ADCK3", "answer-label": "F"}
{"smiles-string": "COC(=O)Nc1nc2cc(Oc3ccc(NC(=O)Nc4cccc(SC)c4)cc3)ccc2[nH]1.Cl", "study-target": "ADCK3", "answer-label": "F"}
{"smiles-string": "Cc1ccc(NC(=O)c2cccc(N3CCCCC3)c2)cc1-c1ccc(C(=O)NCC2CC2)cc1", "study-target": "ADCK3", "answer-label": "T"}
{"smiles-string": "O=C(Nc1n[nH]c2cc(-c3cccs3)ccc12)C1CC1", "study-target": "ADCK3", "answer-label": "F"}
{"smiles-string": "COc1ccc(NC(=O)c2ccoc2)cc1-c1ccc(C(=O)NCC2CC2)cc1", "study-target": "ADCK3", "answer-label": "F"}

====

- System: FGFR3
- condition-set: concentration: 1 μM, replicates: in singlicate; n = 1
%Inh below 5% gives No; %Inh at or above it gives Yes.

{"molecule": "Cn1cc(-c2cnc(N)c3c(-c4ccc5c(c4)CCN5C(=O)Cc4ccccc4)csc23)cn1 [GSK2593074]", "answer-label": "Yes"}
{"molecule": "Nc1ncc(-c2ccc3nccc(-c4ccncc4)c3c2)cc1S(=O)(=O)N1CCCCC1 [GSK1693850]", "answer-label": "Yes"}
{"molecule": "COc1cc(Nc2ccnc3cc(-c4ccncc4)ccc23)cc(OC)c1OC.Cl [GW494610]", "answer-label": "Yes"}
{"molecule": "COc1cccc(CC(=O)N2CCc3cc(-c4cn(C)c5ncnc(N)c45)ccc32)c1 [GSK2608899]", "answer-label": "No"}
{"molecule": "COc1cccc2c(-c3ccncc3)c(-c3ccc(F)cc3)nn12 [GW468513]", "answer-label": "No"}
{"molecule": "Cc1cccc(Nc2nc(N[C@H]3CCCC[C@H]3N)ncc2C(N)=O)c1.Cl [GSK986310]", "answer-label": "No"}
{"molecule": "COc1ccc(C2=C(Nc3cccc(O)c3)C(=O)NC2=O)cc1 [SB-390766]", "answer-label": "No"}
{"molecule": "CCn1c(-c2nonc2N)nc2c(-c3ccccc3)ncc(OCCCN)c21.O=C(O)C(F)(F)F.O=C(O)C(F)(F)F [GSK260205]", "answer-label": "No"}
{"molecule": "Cc1nn2c(=O)cc(N3CCO[C@H](C)C3)nc2n1Cc1cccc(Cl)c1Cl [GSK2373693]", "answer-label": "Yes"}
{"molecule": "N#CC1(c2cccc(C(=O)Nc3cccc(Oc4ccc5nc(NC(=O)C6CC6)sc5n4)c3)c2)CC1", "answer-label": "Yes"}
{"molecule": "CN(c1ccc(NC(=O)Nc2cccc(Cl)c2)cc1)c1ccnc(N)n1.Cl [GW830707]", "answer-label": "No"}
{"molecule": "O=C(Nc1n[nH]c2nc(-c3ccccc3)ccc12)C1CC1 [SB-708999]", "answer-label": "Yes"}
{"molecule": "CC(=O)Nc1cn2nc(Oc3cccc(NC(=O)c4cccc(C(F)(F)F)c4)c3)ccc2n1", "answer-label": "Yes"}
{"molecule": "COC(=O)Nc1nc2cc(Oc3ccc(NC(=O)Nc4cccc(SC)c4)cc3)ccc2[nH]1.Cl [GW697999]", "answer-label": "No"}
{"molecule": "NCCC(NC(=O)c1cc(Br)c(-c2ccnc3[nH]ccc23)s1)c1ccccc1.O=C(O)C(F)(F)F.O=C(O)C(F)(F)F (centres unmarked) [GSK1307810]", "answer-label": "Yes"}
{"molecule": "CCNC(=O)/C=C/c1n[nH]c2cc(Sc3ccccc3C(=O)NC)ccc12", "answer-label": "Yes"}
